System: YANK1;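 also: KINOMEscan kinase panel screen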
Construct: gene STK32A
settings: concentration: 1 μM, replicates: in singlicate; n = 1
# if measured %Inh < 3%: class 1  # else: class 0

Worked set:
{"molecule": "Fc1cccc(COc2ccc(Nc3ncnc4sc(-c5ccc[nH]5)cc34)cc2Cl)c1 [GW707818]", "class": "class 0"}
{"molecule": "Cl.Cn1ccc(-c2cccc(Nc3ccnc4cc(-c5nccs5)ccc34)c2)n1 [GW525701]", "class": "class 1"}

QUERY: Item COc1cc2ncnc(Nc3ccc(OCc4ccccc4Br)c(Cl)c3)c2cc1OC.Cl [GI261590] : %Inh beneath 3%, strictly?
RESULT: class 1

QUERY: Item `C[C@@H]1CCN(C(=O)CO)C[C@@H]1N(C)c1ncnc2[nH]ccc12` : %Inh beneath 3%, strictly?
RESULT: class 0

QUERY: Item Cc1cccc(-c2nc(Nc3ccc4[nH]nnc4c3)c3ccccc3n2)n1 [GW867587] : %Inh beneath 3%, strictly?
RESULT: class 1

QUERY: Item Cc1ccc(O)cc1Nc1cc(C(F)(F)F)nc2ccc(-c3ccncc3)cc12 [GW630823] : %Inh beneath 3%, strictly?
RESULT: class 1

QUERY: Item `Fc1ccc(-c2ncn(CCCNCc3ccccc3)c2-c2ccncc2)cc1` : %Inh beneath 3%, strictly?
RESULT: class 0

QUERY: Item Cl.c1ccc(Cn2ccc3cc(Nc4ncnc5ccccc45)ccc32)cc1 [GW275568] : %Inh beneath 3%, strictly?
RESULT: class 0

QUERY: Item FC(F)(F)c1ccc(-c2nn3ncccc3c2-c2ccnc(Nc3cccc(C(F)(F)F)c3)n2)cc1 [GW828205] : %Inh beneath 3%, strictly?
RESULT: class 1

QUERY: Item COc1cc2c(Nc3cccc(NC(=O)c4ccccc4)c3)ncnc2cc1OCCCN1CCOCC1 [GSK223810] : %Inh beneath 3%, strictly?
RESULT: class 0
